# Target Under Test: Protease (Human immunodeficiency virus 1)
# Assay Explanation: Inhibition of HIV1 recombinant protease at 50 nM after 15 mins by fluorescence assay
Give measured inhibition for each item. Keep answers brief.
// note: answer is a bare numeric in %

Need inhibition, item Cc1c(O)cccc1C(=O)N[C@@H](Cc1ccccc1)[C@H](O)C(=O)N1CSC(C)(C)[C@H]1C(=O)N[C@@H]1c2ccccc2C[C@@H]1O
66

Tell me the measured inhibition of Cc1c(O)cccc1C(=O)N[C@@H](Cc1ccccc1)[C@H](O)C(=O)N1CSC(C)(C)[C@H]1C(=O)NCc1c(Cl)cccc1Cl , please.
98

Quick one: inhibition for Cc1c(O)cccc1C(=O)N[C@@H](Cc1ccccc1)[C@H](O)C(=O)N1CSC(C)(C)[C@H]1C(=O)NC/C=C\CO ?
94

# lookup: inhibition of CNc1cc(C)c(OCC(=O)N[C@@H](Cc2ccccc2)[C@H](O)C(=O)N2CSC(C)(C)[C@H]2C(=O)NCc2ccccc2C)c(C)c1
85

Any idea what its inhibition is? The molecule is Cc1cccc(C)c1CNC(=O)[C@H]1N(C(=O)[C@@H](O)[C@H](Cc2ccccc2)NC(=O)COc2c(C)cc(N)cc2C)CSC1(C)C
99

Quick check: inhibition of Cc1c(O)cccc1C(=O)N[C@@H](Cc1ccccc1)[C@H](O)C(=O)N1CSC(C)(C)[C@H]1C(=O)NCc1c(F)cccc1F ?
91

Endpoint output: inhibition of Cc1cc(N)cc(C)c1OCC(=O)N[C@@H](Cc1ccccc1)[C@H](O)C(=O)N1CSC(C)(C)[C@H]1C(=O)N[C@H]1CCc2ccccc21 . Value?
97

What measured inhibition goes with Cc1cc(N)cc(C)c1OCC(=O)N[C@@H](Cc1ccccc1)[C@H](O)C(=O)N1CSC(C)(C)[C@H]1C(=O)NC1CCCC1 ?
90

What does the data say about its inhibition? Entry: Cc1cccc(Cl)c1CNC(=O)[C@H]1N(C(=O)[C@@H](O)[C@H](Cc2ccccc2)NC(=O)c2cccc(O)c2C)CSC1(C)C
99

Which inhibition is reported for this molecule? Cc1cc(N)cc(C)c1OCC(=O)N[C@@H](Cc1ccccc1)[C@H](O)C(=O)N1CSC(C)(C)[C@H]1C(=O)NCc1c(Cl)cccc1Cl
95

Fill in the blank: the reported inhibition of Cc1c(O)cccc1C(=O)N[C@@H](Cc1ccccc1)[C@H](O)C(=O)N1CSC(C)(C)[C@H]1C(=O)N[C@H]1CCc2ccccc21 is ____.
97

Reported inhibition, molecule Cc1c(O)cccc1CNC(=O)[C@H]1N(C(=O)[C@@H](O)[C@H](Cc2ccccc2)NC(=O)c2cccc(O)c2C)CSC1(C)C : ____
95

Which measured inhibition value corresponds to Cc1cccc(C)c1CNC(=O)[C@H]1N(C(=O)[C@@H](O)[C@H](Cc2ccccc2)NC(=O)c2cccc(O)c2C)CSC1(C)C ?
99

Item under review: Cc1c(O)cccc1C(=O)N[C@@H](Cc1ccccc1)[C@H](O)C(=O)N1CSC(C)(C)[C@H]1C(=O)N[C@@H]1CCc2ccccc21 . Reported inhibition?
91

Quick check: inhibition of C=CCNC(=O)[C@H]1N(C(=O)[C@@H](O)[C@H](Cc2ccccc2)NC(=O)c2cccc(O)c2C)CSC1(C)C ?
93

Which measured inhibition value corresponds to Cc1c(O)cccc1C(=O)N[C@@H](Cc1ccccc1)[C@H](O)C(=O)N1CSC(C)(C)[C@H]1C(=O)NC1CCCCCC1 ?
76

I am curious: what inhibition value has been reported for C=C(C)CNC(=O)[C@H]1N(C(=O)[C@@H](O)[C@H](Cc2ccccc2)NC(=O)COc2c(C)cc(N)cc2C)CSC1(C)C ?
98

What measured inhibition goes with Cc1ccccc1CNC(=O)[C@H]1N(C(=O)[C@@H](O)[C@H](Cc2ccccc2)NC(=O)c2cccc(O)c2C)CSC1(C)C ?
99

What value of inhibition has been recorded for this entry: Cc1ccccc1CNC(=O)[C@H]1N(C(=O)[C@@H](O)[C@H](Cc2ccccc2)NC(=O)COc2c(C)cc(N(C)C)cc2C)CSC1(C)C
85

What does the data say about its inhibition? Entry: Cc1ccccc1CNC(=O)[C@H]1N(C(=O)[C@@H](O)[C@H](Cc2ccccc2)NC(=O)COc2c(C)cc(N)cc2C)CSC1(C)C
98

Could you share which inhibition value was measured for CCNC(=O)[C@H]1N(C(=O)[C@@H](O)[C@H](Cc2ccccc2)NC(=O)c2cccc(O)c2C)CSC1(C)C ?
64

Reported inhibition for Cc1cc(N)cc(C)c1OCC(=O)N[C@@H](Cc1ccccc1)[C@H](O)C(=O)N1CSC(C)(C)[C@H]1C(=O)NC/C=C\CO : what is it?
91

I am curious: what inhibition value has been reported for C=C(C)CNC(=O)[C@H]1N(C(=O)[C@@H](O)[C@H](Cc2ccccc2)NC(=O)c2cccc(O)c2C)CSC1(C)C ?
98

I'd like to know its inhibition. The molecule in question is Cc1c(O)cccc1C(=O)N[C@@H](Cc1ccccc1)[C@H](O)C(=O)N1CSC(C)(C)[C@H]1C(=O)NC1CCC1
65

Consider the molecule shown here: Cc1cccc(C)c1OCC(=O)N[C@@H](Cc1ccccc1)[C@H](O)C(=O)N1CSC(C)(C)[C@H]1C(=O)NC(C)(C)C What is its recorded inhibition?
91

Request the reported inhibition associated with Cc1c(O)cccc1C(=O)N[C@@H](Cc1ccccc1)[C@H](O)C(=O)N1CSC(C)(C)[C@H]1C(=O)NC1CCCC1
94

I would be grateful if you could share the reported inhibition for C#CCNC(=O)[C@H]1N(C(=O)[C@@H](O)[C@H](Cc2ccccc2)NC(=O)c2cccc(O)c2C)CSC1(C)C .
90

Bench note: what inhibition did Cc1c(O)cccc1C(=O)N[C@@H](Cc1ccccc1)[C@H](O)C(=O)N1CSC(C)(C)[C@H]1C(=O)NC1CCCCC1 show?
86

Return reported inhibition; argument: Cc1c(F)cccc1CNC(=O)[C@H]1N(C(=O)[C@@H](O)[C@H](Cc2ccccc2)NC(=O)c2cccc(O)c2C)CSC1(C)C
97
